Value source: patent US20050124647A1

Each entry below lists one item and its recorded IC0 (maximum non-cytotoxic concentration) value.
# Tested on: BMEC
# assay summary: Cytotoxicity on endothelial cells (BMEC)
# Type: cell-based, bovine
Show the value, then the unit it is measured in.

>>> experimental_value("c1ccc2c(C3CCCCc4[nH]c5ccccc5c43)c[nH]c2c1 (racemic) [ST1621, 5-(indol-3-yl)-indo(2,3a]-cycloheptan.]")
"0.1 µM"
>>> experimental_value("c1[nH]c2cc3c(cc2c1C1CCCCc2c1[nH]c1cc4c(cc21)OCO4)OCO3 (racemic)")
"100 µM"
>>> experimental_value("c1ccc(COc2ccc3[nH]cc(C4CCCCc5[nH]c6ccc(OCc7ccccc7)cc6c54)c3c2)cc1 (racemic)")
"25 µM"
>>> experimental_value("c1ccc2c(C3CCCc4[nH]c5ccccc5c43)c[nH]c2c1 (racemic)")
"25 µM"
>>> experimental_value("c1ccc2c(C3CCCCc4c3[nH]c3ccccc43)c[nH]c2c1 (racemic) [ST1381, 1-(indol-3-yl)-indo[2,3a]-cycloheptan.]")
"30 µM"

Q: Find the measured IC0 (maximum non-cytotoxic concentration) of Oc1ccc2[nH]cc(C3CCCCc4c3[nH]c3ccc(O)cc43)c2c1 (racemic) with BMEC as test system.
Result: 10 µM

====

# System: MCF-7/DX
# assay summary: Antiproliferative activity vs resistant cell MCF-7/DX
# Type: cell-based
# condition: Homo sapiens, MCF7/DX; resistant cell (doxorubicin-resistant, P-glycoprotein overexpressing); read-out: IC50 +/− SD, MCF-7/DX
Each entry below lists one item and its recorded pIC50 value.
# reply with the number alone; pIC50 is -log10 of concentration in mol/L

>>> experimental_value("Oc1ccc2[nH]cc(C3CCCCc4c3[nH]c3ccc(O)cc43)c2c1 (racemic)")
4.41
>>> experimental_value("c1ccc(COc2ccc3[nH]cc(C4CCCCc5[nH]c6ccc(OCc7ccccc7)cc6c54)c3c2)cc1 (racemic)")
4.15
>>> experimental_value("CC1(C)OCC(C2c3c([nH]c4ccccc34)C(c3c[nH]c4ccccc34)C3OC(C)(C)OC32)O1 (racemic)")
4.57
>>> experimental_value("c1ccc2c(C3CCCCc4[nH]c5ccccc5c43)c[nH]c2c1 (racemic) [ST1621, 5-(indol-3-yl)-indo(2,3a]-cycloheptan.]")
4.17
>>> experimental_value("c1ccc(COc2ccc3[nH]cc(C4CCCCc5c4[nH]c4ccc(OCc6ccccc6)cc54)c3c2)cc1 (racemic)")
4.61
>>> experimental_value("c1[nH]c2cc3c(cc2c1C1CCCc2c1[nH]c1cc4c(cc21)OCO4)OCO3 (racemic)")
4.23

Turning to the following molecule.
Q: Specify measured pIC50 for c1ccc2c(C3CCCCc4c3[nH]c3ccccc43)c[nH]c2c1 (racemic) [ST1381, 1-(indol-3-yl)-indo[2,3a]-cycloheptan.] .
Result: 4.55
